Where do these numbers come from? They come from patent US20110028447A1.

Assign pKi to each entry below.
biological target: human CB1 receptor (Homo sapiens); experiment: Human CB1 receptor binding, [3H] CP-55,940 displacement on HEK cell membranes; set-up: expressed in transfected cells; host or cells: HEK cells, doxycycline-induced; membrane preparation; settings: CB1 Ki
Sequence (P21554 whole entry): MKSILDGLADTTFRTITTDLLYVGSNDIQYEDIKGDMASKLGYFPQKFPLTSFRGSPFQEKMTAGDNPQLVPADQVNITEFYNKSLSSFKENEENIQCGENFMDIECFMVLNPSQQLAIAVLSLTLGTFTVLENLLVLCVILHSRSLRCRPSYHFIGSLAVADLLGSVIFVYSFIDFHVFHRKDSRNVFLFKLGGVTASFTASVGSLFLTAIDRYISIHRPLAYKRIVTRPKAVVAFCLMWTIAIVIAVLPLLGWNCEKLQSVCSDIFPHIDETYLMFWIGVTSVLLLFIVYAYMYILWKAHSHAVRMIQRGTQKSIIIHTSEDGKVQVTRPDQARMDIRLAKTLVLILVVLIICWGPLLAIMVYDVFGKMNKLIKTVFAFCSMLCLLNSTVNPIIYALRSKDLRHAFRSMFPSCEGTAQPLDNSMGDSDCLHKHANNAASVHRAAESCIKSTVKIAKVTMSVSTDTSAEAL
Quick note: pKi values are minus log10 of concentrations in mol/L.

Returns the measured pKi for the input compound. Input: `CC(C)(C)[C@H](NC(=O)c1nn(Cc2ccc(F)cc2)c2ccccc12)C(=O)NC(CO)CO`
8.78

Returns the measured pKi for the input compound. Input: `CC(C)(C)[C@H](NC(=O)c1nn(Cc2ccc(F)cc2)c2ccc(Cl)cc12)C(=O)NCCS(N)(=O)=O`
7.80

Returns the measured pKi for the input compound. Input: CC(C)(C)C(NC(=O)c1nn(Cc2ccc(F)cc2)c2c(F)cccc12)C(=O)NCCCO (stereo not drawn)
9.25

Returns the measured pKi for the input compound. Input: CC(C)(C)C(NC(=O)c1nn(Cc2ccc(C#N)cc2)c2ccccc12)C(N)=O (stereo not drawn)
8.69

Returns the measured pKi for the input compound. Input: `CC(C)(C)[C@H](NC(=O)c1nn(Cc2ccc(F)cc2)c2ccccc12)C(=O)N1CCC(CO)CC1`
8.95

Returns the measured pKi for the input compound. Input: `CC(C)(C)[C@H](NC(=O)c1nn(Cc2ccc(C#N)cc2F)c2c(F)c(F)ccc12)C(=O)NC[C@@H](O)CO`
7.13

Returns the measured pKi for the input compound. Input: `CC(C)(C)[C@H](NC(=O)c1nn(Cc2ccc(F)cc2)c2ccccc12)C(=O)N1CCC(C#N)CC1`
8.49

Returns the measured pKi for the input compound. Input: `CC(C)(C)[C@H](NC(=O)c1nn(Cc2ccc(F)cc2)c2c(F)cccc12)C(=O)NCCC(N)=O`
8.19

Returns the measured pKi for the input compound. Input: CC(C)(C)C(NC(=O)c1nn(Cc2ccc(C#N)cc2)c2ccccc12)C(=O)N1CCC(O)CC1 (stereo not drawn)
7.49

Returns the measured pKi for the input compound. Input: `CC(C)(C)[C@H](NC(=O)c1nn(Cc2ccc(F)cc2)c2ccccc12)C(=O)N1CCC[C@@H]1CO`
8.90

Returns the measured pKi for the input compound. Input: `COc1cc(C#N)ccc1Cn1nc(C(=O)N[C@H](C(=O)NCCO)C(C)(C)C)c2ccccc21`
6.68

Returns the measured pKi for the input compound. Input: `CC(C)(C)[C@H](NC(=O)c1nn(Cc2ccc(F)cc2)c2ccc(Cl)cc12)C(=O)NC(CO)CO`
8.19

Returns the measured pKi for the input compound. Input: `Cc1nnc(CNC(=O)[C@@H](NC(=O)c2nn(Cc3ccc(F)cc3)c3ccccc23)C(C)(C)C)o1`
9.01
